Hello, the source for this data is the supplement of paper PMC10567573, in case you need it.

B1: FAM164A (parent)
chain: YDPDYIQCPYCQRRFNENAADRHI

Variants of: B1
Assay: protein stability index of a GFP-peptide fusion (GPS, HEK-293T) (PSI 1-6); higher = more stable;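 also: lentivirally expressed fusions sorted by FACS into six bins by GFP to DsRed ratio, PSI derived from sequencing read proportions per bin multiplied by bin number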
Conditions: c terminus: a fixed tail appended
// n strictly below 4 in protein stability index; y otherwise

For orientation, consider the following solved cases.
A20V: y
D2M: n
C8I: n
P3H: n
C8F: n
N16V: y
I24G: y
H23Y: n

INPUT: Record A20F ; criterion: protein stability index no lower than 4. Met?
OUTPUT: n

INPUT: Has N18R a recorded protein stability index greater than or equal to 4?
OUTPUT: n

INPUT: Does the reported protein stability index for F15L fall at or above the 4 mark?
OUTPUT: n
